Test system: Escherichia coli EC-1: VOGEL, mouse virulent
MEASUREMENT_PROTOCOL: MIC determination, EC-1
Assay type: cell-based
PROTOCOL_CONDITIONS: Escherichia coli, read-out: EC-1 (MIC), Table 2, lower of duplicate values
In plain terms, low MIC, meaning strictly below 0.5 µg/mL, gives 1, and everything else gives 0.

{"columns": ["MOLECULE", "ANSWER_LABEL"],
 "data": [
  ["Cc1cnn(-c2ccc(-c3cc(=O)n(CC[C@](C)(C(=O)NO)S(C)(=O)=O)cc3F)cc2)n1 [Example 23]", 1],
  ["C[C@@](CCn1cc(F)c(-c2ccc(Cl)cc2)cc1=O)(C(=O)NO)S(C)(=O)=O [Example 3]", 1]
]}

# check: MIC < 0.5 µg/mL for COc1ccc(-c2cc(=O)n(CC[C@](C)(C(=O)NO)S(C)(=O)=O)cc2F)c(F)c1 [Example 27]
1

Lab note: MIC threshold 0.5 µg/mL. Does this molecule come in strictly under it? COc1ccc(-c2cc(=O)n(CC[C@](C)(C(=O)NO)S(C)(=O)=O)cc2F)cc1 [Example 28]
0

Threshold test, MIC < 0.5 µg/mL: COc1ccc(-c2cc(=O)n(CC[C@](C)(C(=O)NO)S(C)(=O)=O)cc2F)cc1C [Example 34]
1
